Numbers sourced from paper PMC6522510.

System: U937
Set-up: species or system AML cell lines (8); Primary HTS, single concentration about 10 uM, Cell Titer Glo viability; log10 luminescence, per cent inhibition relative to cycloheximide control
Conditions: 72 h, relative to cycloheximide control, log10 luminescence; inhibitor
Counter-ions that a name gives are not always drawn.

| Compound | U937 %inh / % |
| --- | --- |
| c1ccc(Cc2nc3ccc(Nc4ncnc5ccccc45)cc3[nH]2)cc1 | -1.321 |
| Cn1c(=O)c(Cc2ccc(F)cc2F)cc2cnc(NC3CCOCC3)nc21 | -0.7764 |
| CCn1c(-c2nonc2N)nc2c(N3CCCC3)nccc21 | -1.967 |
| CC(C)[C@@H](O)CC[C@@H](C)[C@H]1CC[C@H]2[C@@H]3CC=C4C[C@@H](O)CC[C@]4(C)[C@H]3CC[C@]12C [SJ000561051-1, 24(S)-HYDROXYCHOLESTEROL] | -0.5103 |
| Fc1cccc(COc2ccc(Nc3ncnc4cc(-c5ccc[nH]5)sc34)cc2Cl)c1 | 11.09 |
| COc1ccc(CCN=C2NC(=O)/C(=C/c3ccc4ncccc4c3)S2)cc1 | 0.5801 |
| CCS(=O)(=O)c1ccc(OC)c(Nc2ncc(-c3cccc(-c4ccccc4F)c3)o2)c1 | -2.484 |
| CS(=O)(=O)CCNCc1ccc(-c2ccc3ncnc(Nc4ccc(OCc5ccccc5)c(Br)c4)c3c2)o1 | -1.717 |
| COC(=O)Nc1nc2ccc(S(=O)(=O)c3ccc(NC(=O)Nc4cc(C(F)(F)F)ccc4F)cc3)cc2[nH]1 | 1.083 |
| CCOc1ccc2c(-c3ccnc(Nc4cc(OC)cc(C(F)(F)F)c4)n3)cnn2n1 | 1.137 |
| COc1ccc(-c2nn3ncccc3c2-c2ccnc(Nc3ccc4c(c3)OCCO4)n2)cc1 | 3.638 |
| CCS(=O)(=O)c1ccc(OC)c(Nc2ncc(-c3cccc(OC)c3)o2)c1 | 5.914 |
| CN(C)CCOc1ccc(-c2nc(-c3ccncc3)c(-c3ccc4c(c3)CC/C4=N\O)[nH]2)cc1 | 1.485 |
| O=C1NC(=NCCc2cccs2)S/C1=C\c1ccc2ncccc2c1 | 4.783 |
| COc1cc2nc(N3CCN(C(=O)C4COc5ccccc5O4)CC3)nc(N)c2cc1OC (centres unmarked) [SJ000113084-6, DOXAZOSIN MESYLATE] | 1.071 |
| Cn1cc(C=C2C(=O)Nc3cccnc32)c2ccccc21 | -3.233 |
| Cc1ccc2c(-c3ccnc(Nc4ccc5c(c4)OCCO5)n3)c(-c3ccc(C(F)(F)F)cc3)nn2n1 | 1.52 |
| COc1cccc(OC)c1C(=O)N[C@@H]1C(=O)N2[C@@H]1SC(C)(C)[C@@H]2C(=O)O [SJ000285650-3, METHICILLIN SODIUM] | 1.642 |
| CC(=O)[C@@H]1[C@@H](C)N(Cc2ccccc2)C(=O)N[C@H]1c1cccc(C(F)(F)F)c1 | 0.542 |
| CC1=C(C(=O)Nc2ccc3[nH]nc(C)c3c2)C(c2ccc(C(F)(F)F)cc2)CC(=O)N1 (centres unmarked) | 19.8 |
| NC(=O)c1cc(-c2ccc(F)cc2)cc(-c2ccncc2)c1N | -0.8611 |
| Nc1c(C(=O)c2cccc(-c3ccncc3)c2)cnn1-c1ccc(F)cc1 | 13.25 |
| Cn1cnc([N+](=O)[O-])c1Sc1ncnc2[nH]cnc12 | -0.6587 |
| C[C@H](CS(C)(=O)=O)Nc1ncc2cc(Oc3ccc(F)cc3F)c(=O)n(C)c2n1 | 2.611 |
| N#CCn1c(=O)c(Oc2ccc(F)cc2F)cc2cnc(NC3CCOCC3)nc21 | 0.6532 |
| Nc1c(C(=O)c2cccc(C#CCN3CCOCC3)c2)cnn1-c1ccc(F)cc1 | 6.28 |
| O=[N+]([O-])c1ccc2c(c1)C(c1ccccc1Cl)=Nc1cn[nH]c1N2 | -1.165 |
| COC(=O)c1ccc2c(c1)C(=Cc1cc(Br)c(O)c(Br)c1)C(=O)N2 | 4.474 |
| Cn1c(=O)c(Oc2ccccc2)cc2cnc(NC3CCOCC3)nc21 | 5.834 |
